Biological target: T1, recombinant human TGFβ2 (human, UniProt P61812 303-414)
T1 construct: mature; also called TGFbeta2; rhTGFβ2
T1 sequence (looked up): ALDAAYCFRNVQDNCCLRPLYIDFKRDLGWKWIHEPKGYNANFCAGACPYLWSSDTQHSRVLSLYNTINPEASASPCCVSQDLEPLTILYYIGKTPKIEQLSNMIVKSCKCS
Assay: radioreceptor assay, inhibition of 125I-TGFβ2 binding to A549 cells; concentration of antibody combining sites
QUANTITY: pIC50
Keep in mind that pIC50 stands for -log10 of concentration in molar terms.

Example binders with recorded pIC50:
14F12 scFv (scFv) scFv: EIQLVESGGGVVQPGRSLRLSCAASGFTFSSYAMHWVRQAPAKGLEWVAVISYDGSNKYYADSVKGRFTISRDNSKNTLYLQMNSLRAEDTAVYYCARAGLETTWGQGTLVTVSSSGGGGGSGGGGSGGGGSSSELTQDPAVSVALGQTVRITCQGDSLRNYYANWYQQKPGQAPVLVIYGKNNRPSGIPDRFSGSSSGNTASLTITGARAEDEGVYYCNSRDSSGAVFGGGTKLTVLG    8.52
6A5 scFv (scFv, also called 6A5 single chain Fv) scFv: EVQLVESGGGVVQPGRSLRLSCAASGFTFSSYGMHWVRQAPGKGLEWVAVIWYDGSNKYYADSVKGRFTISRDNSKNTLYLQMDSLRAEDTAVYYCGRTLESSLWGQGTLVTVSSGGGGSGGGGSGGGGSSSELTQDPAVSVALGQTVRITCQGDSLRSYYASWYQQKPGQAPVLVIYGKNNRPSGIPDRFAGSNSGNTASLTITGAQAEDEADYYCSSRDSSGNHVVFGGGTKLTVLG    8.82

Now, please, on to the next binder.
// query Param item = 6B1 IgG4 (antibody, V domains shown, Whole antibody: human gamma 4 and human lambda constant regions; FITC-labelled in the human tissue study; also called antibody 6B1) VH: EVQLVESGGGVVQPGRSLRLSCAASGFTFSSYGMHWVRQAPGKGLEWVAVIWYDGSNKYYADSVKGRFTISRDNSKNTLYLQMDSLRAEDTAVYYCGRTLESSLWGQGTLVTVSS VL: SSELTQDPAVSVALGQTVRITCQGDSLRSYYASWYQQKPGQAPVLVIYGKNNRPSGIPDRFSGSSSGNTASLTITGAQAEDEADYYCNSRDSSSTHRGVFGGGTKLTVLG ; retrieve measured pIC50.
// result 9.22

Values were extracted from patent US20050049403A1.
